assayed target: T1, recombinant human CD73 protein (human, UniProt P21589 27-547)
T1 construct: Bought soluble protein; The background says that CD73 forms a homodimer; also called soluble CD73; free CD73 protein
T1 sequence (looked up): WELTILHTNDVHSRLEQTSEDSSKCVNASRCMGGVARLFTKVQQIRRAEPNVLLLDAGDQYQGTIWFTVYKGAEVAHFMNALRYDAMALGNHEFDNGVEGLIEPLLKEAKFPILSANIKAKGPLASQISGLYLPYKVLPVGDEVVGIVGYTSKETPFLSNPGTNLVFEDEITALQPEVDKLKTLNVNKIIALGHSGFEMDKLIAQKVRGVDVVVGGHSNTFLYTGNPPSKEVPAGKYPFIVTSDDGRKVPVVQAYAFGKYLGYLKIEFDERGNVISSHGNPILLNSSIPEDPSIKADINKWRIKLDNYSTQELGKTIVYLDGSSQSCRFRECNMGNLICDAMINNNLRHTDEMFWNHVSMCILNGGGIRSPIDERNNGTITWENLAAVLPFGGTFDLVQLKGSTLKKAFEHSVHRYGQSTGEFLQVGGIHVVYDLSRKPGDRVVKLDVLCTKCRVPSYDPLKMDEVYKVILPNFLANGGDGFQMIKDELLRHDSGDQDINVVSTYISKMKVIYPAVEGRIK
experiment summary: BLI (Fortebio), human CD73 on HIS1K biosensors, antibody as analyte
Method: The humanized antibody VH and VL were separately constructed into eukaryotic expression vectors containing the hIgG1-kappa constant region with L234A, L235A, P329A and P331S mutations (abbreviated as hIgG1 in the present application). The affinity of all humanized antibodies was assayed in this example. […] The data of the antigen-antibody affinity were calculated by regression according to the binding curves using an analysis software.
Would you mind telling me the reported kon of each entry?
Numbers only, in M⁻¹ s⁻¹.

Recorded kon, per entry:
Hab7C3C2.5 (antibody, human IgG1, kappa, L234A L235A, V domains shown, Humanized 7C3C2; also called Hab7C3C.5) VH: QVQLVQSGAEVKKPGASVKVSCKASGYTFTSYDINWVRQATGQGLEWIGWIYPRDGFTKYNEKFKGRVTLTVNTSISTAYMELSSLRSEDTAVYYCARKEGYRGDWYFDVWGQGTTVTVSS VL: DIQMTQSPSSLSASVGDRVTITCRASGNVHNYLAWYQQKPGKAPKLLLYNAKTLASGVPSRFSGSGSGTDYTLTISSLQPEDFATYYCQHFWSTPWTFGGGTELEIKR | 3.56e+06
Hab1F2F9.15 (antibody, human IgG1, kappa, L234A L235A, V domains shown, Humanized 1F2F9; also called Huab1F2F9.15; HuablF2F9.15) VH: QVQLVQSGAEVKKPGASVKVSCKASGYTFTSYWMHWVRQAPGQRLEWMGNINPSNGGTKYSQKFQGRVTITVDTSASTAYMELSSLRSEDTAVYYCARRDYGSPSYWGQGTTVTVSS VL: DIQMTQSPSSLSASVGDRVTITCKASQDINSYLTWFQQKPGKAPKSLIYRTNILLDGVPSRFSGSGSGTDYTLTISSLQPEDFATYYCLQYHEFPVTFGGGTKLEIKR | 2.06e+06

Kindly consider the entry below.
Can you share its kon? I mean this binder: Hab1F2F9.12 (antibody, human IgG1, kappa, L234A L235A, V domains shown, Humanized 1F2F9; also called Huab1F2F9.12) VH: QVQLVQSGAEVKKPGASVKVSCKASGYTFTSYWMHWVRQAPGQRLEWMGNINPSNGGTKYNEKFQGRVTITVDTSASTAYMELSSLRSEDTAVYYCARRDYGSPSYWGQGTTVTVSS VL: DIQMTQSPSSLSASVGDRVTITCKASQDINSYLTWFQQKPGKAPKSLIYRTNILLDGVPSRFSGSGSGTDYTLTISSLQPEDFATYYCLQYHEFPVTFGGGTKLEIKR
1.85e+06
